Tested on: Escherichia coli
PROTOCOL TEXT: Antibacterial activity against Escherichia coli ATCC 25922 assessed as inhibition of bacterial growth after 24 hrs by CLSI protocol based two fold serial dilution method
Type: functional
RESULT TYPE: MIC (µM)
Response body: numeric value in µM, unit text excluded.

| COMPOUND | RESULT TYPE | NUMERIC VALUE |
| --- | --- | --- |
| CCCCCCN1CCN(c2cc3c(cc2F)c(=O)c(-c2csc(N)n2)cn3CC)CC1 | MIC | 140 |
| CCn1cc(-c2csc(N)n2)c(=O)c2cc(F)c(N3CCN(CC(C)=O)CC3)cc21 | MIC | 298 |
| CCn1cc(-c2csc(N)n2)c(=O)c2cc(F)c(N3CCN(CC(=O)N(CCO)CCO)CC3)cc21 | MIC | 15 |

For the compound CCn1cc(-c2csc(N)n2)c(=O)c2cc(F)c(N3CCN(C=O)CC3)cc21 , give its measured MIC value.
160

For the compound CCCCCCCCN1CCN(c2cc3c(cc2F)c(=O)c(-c2csc(N)n2)cn3CC)CC1 , give its measured MIC value.
1060

For the compound CCCCN1CCN(c2cc3c(cc2F)c(=O)c(-c2csc(N)n2)cn3CC)CC1 , give its measured MIC value.
37

For the compound CCN(CC)C(=O)CN1CCN(c2cc3c(cc2F)c(=O)c(-c2csc(N)n2)cn3CC)CC1 , give its measured MIC value.
66

For the compound CCn1cc(-c2csc(N)n2)c(=O)c2cc(F)c(N3CCN(CCO)CC3)cc21 , give its measured MIC value.
153

For the compound CCCCCCCCCCN1CCN(c2cc3c(cc2F)c(=O)c(-c2csc(N)n2)cn3CC)CC1 , give its measured MIC value.
499

For the compound CCn1cc(-c2csc(N)n2)c(=O)c2cc(F)c(N3CCN(Cc4ccc(Cl)c(Cl)c4)CC3)cc21 , give its measured MIC value.
15

For the compound CCn1cc(-c2csc(N)n2)c(=O)c2cc(F)c(N3CCN(CC(C)O)CC3)cc21 (configuration not stated) , give its measured MIC value.
37

For the compound CCOC(=O)CN1CCN(c2cc3c(=O)c(-c4csc(N)n4)cn(CC)c3cc2Cl)CC1 , give its measured MIC value.
1080

For the compound CCCN1CCN(c2cc3c(cc2F)c(=O)c(-c2csc(N)n2)cn3CC)CC1 , give its measured MIC value.
308

For the compound CCn1cc(-c2csc(N)n2)c(=O)c2cc(F)c(N3CCNCC3)cc21 , give its measured MIC value.
343

====

System: Escherichia coli
PROTOCOL TEXT: Antibacterial activity against Escherichia coli ATCC 25922 assessed as inhibition of bacterial growth after 24 hrs by CLSI protocol based two fold serial dilution method
Format: functional
Measured MIC, listed per entry.
Response body: numeric value in µM, unit text excluded.

Consider the following illustrative entries.
| STRUCTURE | RESULT TYPE | NUMERIC VALUE |
| --- | --- | --- |
| CCn1cc(-c2csc(N)n2)c(=O)c2cc(N3CCN(c4cc5c(cc4F)c(=O)c(-c4csc(N)n4)cn5CC)CC3)c(Cl)cc21 | MIC | 757 |
| CCn1cc(-c2csc(N)n2)c(=O)c2cc(N3CCNCC3)c(Cl)cc21 | MIC | 164 |
| C#CCN1CCN(c2cc3c(cc2F)c(=O)c(-c2csc(N)n2)cn3CC)CC1 | MIC | 19 |
| CCn1cc(-c2csc(N)n2)c(=O)c2cc(F)c(N3CCN(Cc4ccc(Cl)cc4)CC3)cc21 | MIC | 32 |
| CCn1cc(-c2csc(N)n2)c(=O)c2cc(F)c(N3CCN(Cc4ccc(Cl)cc4Cl)CC3)cc21 | MIC | 482 |
| C=CCN1CCN(c2cc3c(cc2F)c(=O)c(-c2csc(N)n2)cn3CC)CC1 | MIC | 155 |
| CCn1cc(-c2csc(N)n2)c(=O)c2cc(F)c(N3CCN(CC(=O)N(C)C)CC3)cc21 | MIC | 70 |
| CCOC(=O)CN1CCN(c2cc3c(cc2F)c(=O)c(-c2csc(N)n2)cn3CC)CC1 | MIC | 558 |

For the molecule CCn1cc(-c2csc(N)n2)c(=O)c2cc(N3CCN(CC(C)=O)CC3)c(Cl)cc21 , give its measured MIC value.
288

For the molecule CCN1CCN(c2cc3c(cc2F)c(=O)c(-c2csc(N)n2)cn3CC)CC1 , give its measured MIC value.
160

For the molecule CCCCCCCCCCCCN1CCN(c2cc3c(cc2F)c(=O)c(-c2csc(N)n2)cn3CC)CC1 , give its measured MIC value.
946

For the molecule CCn1cc(-c2csc(N)n2)c(=O)c2cc(F)c(N3CCN(C)CC3)cc21 , give its measured MIC value.
165

For the molecule CCn1cc(-c2csc(N)n2)c(=O)c2cc(F)c(N3CCN(C(C)=O)CC3)cc21 , give its measured MIC value.
39
